Biological target: Carbonic anhydrase 1 (Homo sapiens)
PARAMETER: Ki (µM)
Response body: numeric value in µM, unit text excluded.

Which measured Ki belongs to Cc1cc(C)c(S(=O)(=O)NO)c(C)c1 , tested on Carbonic anhydrase 1 (Homo sapiens)?
72

Return Ki measured with Carbonic anhydrase 1 (Homo sapiens) given this compound: O=S(=O)(NO)c1ccccc1
18

Observed Ki on Carbonic anhydrase 1 (Homo sapiens) for O=[N+]([O-])c1ccccc1S(=O)(=O)NO , please.
15

Further cases:
Recorded Ki for O=S(=O)(NO)c1cccc(C(F)(F)F)c1 with Carbonic anhydrase 1 (Homo sapiens), please?
33

Enter reported Ki observed with Carbonic anhydrase 1 (Homo sapiens) for COc1ccc(S(=O)(=O)NCC(=O)NO)cc1
0.03

Could you share what Ki was measured for O=[N+]([O-])c1ccc(S(=O)(=O)NO)cc1 , tested on Carbonic anhydrase 1 (Homo sapiens)?
57

Identify the measured Ki of O=S(=O)(NO)c1c(F)c(F)c(F)c(F)c1F for Carbonic anhydrase 1 (Homo sapiens).
30

---

Known Ki of a selection of compounds
Target: Carbonic anhydrase 1 (Homo sapiens, UniProt P00915)
Sequence (P00915 whole entry): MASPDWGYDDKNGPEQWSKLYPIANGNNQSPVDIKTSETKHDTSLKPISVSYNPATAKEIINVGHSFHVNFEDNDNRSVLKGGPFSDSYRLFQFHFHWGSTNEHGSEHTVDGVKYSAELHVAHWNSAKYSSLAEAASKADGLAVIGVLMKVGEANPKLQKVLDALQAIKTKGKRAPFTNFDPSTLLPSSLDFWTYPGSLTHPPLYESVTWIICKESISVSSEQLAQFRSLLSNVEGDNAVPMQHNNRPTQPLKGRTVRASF

Param readout = Ki; param system = Carbonic anhydrase 1 (Homo sapiens, UniProt P00915); param query = O=C(CN(Cc1ccc([N+](=O)[O-])cc1)S(=O)(=O)C(F)(F)C(F)(F)C(F)(F)C(F)(F)F)NO ; response: value
> 200 nM

Report Ki for COc1ccc(S(=O)(=O)N(Cc2ccccc2[N+](=O)[O-])C(C)C(=O)NO)cc1 (stereo not given) tested on Carbonic anhydrase 1 (Homo sapiens, UniProt P00915).
> 200 nM

Others:
Could you share what Ki was measured for COc1ccc(S(=O)(=O)N(Cc2ccccc2Cl)C(C)C(=O)NO)cc1 (stereo not given) , tested on Carbonic anhydrase 1 (Homo sapiens, UniProt P00915)?
> 200 nM

Form field: Ki recorded for CC(C(=O)NO)N(Cc1ccccc1[N+](=O)[O-])S(=O)(=O)C(F)(F)C(F)(F)C(F)(F)C(F)(F)F (stereo not given) with Carbonic anhydrase 1 (Homo sapiens, UniProt P00915) (enter value)
> 200 nM

Field: Ki (Carbonic anhydrase 1 (Homo sapiens, UniProt P00915)). Entry: O=[N+]([O-])c1ccc(S(=O)(=O)NO)cc1Cl
17000 nM

Field: Ki (Carbonic anhydrase 1 (Homo sapiens, UniProt P00915)). Entry: Nc1ccc(S(=O)(=O)NO)cc1
62000 nM

Any idea what Ki came out for CC(C(=O)NO)N(Cc1ccc([N+](=O)[O-])cc1)S(=O)(=O)c1c(F)c(F)c(F)c(F)c1F (stereo not given) on Carbonic anhydrase 1 (Homo sapiens, UniProt P00915)?
> 200 nM

Please tell me: Ki of CC(C(=O)NO)N(Cc1ccccc1[N+](=O)[O-])S(=O)(=O)c1c(F)c(F)c(F)c(F)c1F (stereo not given) , system Carbonic anhydrase 1 (Homo sapiens, UniProt P00915)?
> 200 nM

Ki of COc1ccc(S(=O)(=O)NC(C)C(=O)NO)cc1 (stereo not given) on Carbonic anhydrase 1 (Homo sapiens, UniProt P00915)?
32 nM

Observed Ki on Carbonic anhydrase 1 (Homo sapiens, UniProt P00915) for O=C(CN(Cc1ccccc1)S(=O)(=O)c1c(F)c(F)c(F)c(F)c1F)NO , please.
90 nM
